Measured values drawn from the supplement of paper PMC10567573 for this set.

B1: DVL3 (parent)
chain: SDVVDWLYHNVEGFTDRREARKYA

- Variants of: B1
- Test Name: protein stability index of a GFP-peptide fusion (GPS, HEK-293T) (PSI 1-6); higher = more stable;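 note: lentivirally expressed fusions sorted by FACS into six bins by GFP to DsRed ratio, PSI derived from sequencing read proportions per bin multiplied by bin number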
- Condition Info: c terminus: a fixed tail appended
Cut-off 3 on protein stability index, inclusive. At or above means True; below means False.

API: above_or_equal(metric=protein stability index, cutoff=3) for item "T15G" False

API: above_or_equal(metric=protein stability index, cutoff=3) for item "V3S" True

API: above_or_equal(metric=protein stability index, cutoff=3) for item "E19K" False

API: above_or_equal(metric=protein stability index, cutoff=3) for item "Y8C" True

API: above_or_equal(metric=protein stability index, cutoff=3) for item "R18E" True

API: above_or_equal(metric=protein stability index, cutoff=3) for item "S1H" True

API: above_or_equal(metric=protein stability index, cutoff=3) for item "T15A" False

API: above_or_equal(metric=protein stability index, cutoff=3) for item "S1T" True

API: above_or_equal(metric=protein stability index, cutoff=3) for item "R17V" False

API: above_or_equal(metric=protein stability index, cutoff=3) for item "R21I" False

API: above_or_equal(metric=protein stability index, cutoff=3) for item "A24V" False

API: above_or_equal(metric=protein stability index, cutoff=3) for item "S1I" False

API: above_or_equal(metric=protein stability index, cutoff=3) for item "Y8T" True

API: above_or_equal(metric=protein stability index, cutoff=3) for item "R18Y" False

API: above_or_equal(metric=protein stability index, cutoff=3) for item "R21W" False

API: above_or_equal(metric=protein stability index, cutoff=3) for item "V11S" False

API: above_or_equal(metric=protein stability index, cutoff=3) for item "H9M" False

API: above_or_equal(metric=protein stability index, cutoff=3) for item "Y8K" True

API: above_or_equal(metric=protein stability index, cutoff=3) for item "A24H" True

API: above_or_equal(metric=protein stability index, cutoff=3) for item "V4G" True

API: above_or_equal(metric=protein stability index, cutoff=3) for item "V4F" True

API: above_or_equal(metric=protein stability index, cutoff=3) for item "V11E" True

API: above_or_equal(metric=protein stability index, cutoff=3) for item "D16P" True

API: above_or_equal(metric=protein stability index, cutoff=3) for item "T15Q" True

API: above_or_equal(metric=protein stability index, cutoff=3) for item "G13Q" False

API: above_or_equal(metric=protein stability index, cutoff=3) for item "L7Q" True

API: above_or_equal(metric=protein stability index, cutoff=3) for item "R17M" False

API: above_or_equal(metric=protein stability index, cutoff=3) for item "R18F" False

API: above_or_equal(metric=protein stability index, cutoff=3) for item "N10R" False

API: above_or_equal(metric=protein stability index, cutoff=3) for item "A24Q" True

API: above_or_equal(metric=protein stability index, cutoff=3) for item "K22N" True

API: above_or_equal(metric=protein stability index, cutoff=3) for item "V3W" False
